biological target: Beta-lactamase (Enterobacter cloacae); assay: Inhibitory activity against class C Beta-lactamase isolated from Enterobacter cloacae
metric: IC50

These solved cases illustrate the format of a correct answer.
{"molSmiles": "O=C1NC(=S)S/C1=C\\c1cn(-c2ccccc2)cn1", "IC50": "> 700 µM"}
{"molSmiles": "O=C(O)CN1C(=O)/C(=C/c2ccccc2)SC1=S", "IC50": "> 700 µM"}

Below: the item to evaluate.
Problem: Answer with the recorded IC50 of `O=C1NC(=O)C(=CC=Cc2ccc([N+](=O)[O-])o2)S1` only.
Result: > 50 µM

###

// reported IC50 per item
biological target: Beta-lactamase (Enterobacter cloacae, UniProt P05364); assay: Inhibitory activity against class C Beta-lactamase isolated from Enterobacter cloacae
Sequence (P05364 whole entry): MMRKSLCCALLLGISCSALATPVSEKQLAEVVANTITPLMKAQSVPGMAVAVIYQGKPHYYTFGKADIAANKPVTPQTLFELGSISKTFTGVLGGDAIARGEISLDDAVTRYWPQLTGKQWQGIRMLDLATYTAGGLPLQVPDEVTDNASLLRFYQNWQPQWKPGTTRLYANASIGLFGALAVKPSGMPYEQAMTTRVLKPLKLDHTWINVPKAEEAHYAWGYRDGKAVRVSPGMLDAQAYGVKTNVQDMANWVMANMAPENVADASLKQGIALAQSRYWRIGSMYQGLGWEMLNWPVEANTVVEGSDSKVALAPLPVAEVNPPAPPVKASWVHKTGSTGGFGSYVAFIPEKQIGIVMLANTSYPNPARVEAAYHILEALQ
// units = µM; emit number, no label

Problem: Answer with the recorded IC50 of `CCN1C(=O)/C(=C/c2ccccc2)SC1=S` only.
Result: 240

Problem: Answer with the recorded IC50 of `O=C1NC(=S)S/C1=C\c1ccc([N+](=O)[O-])cc1` only.
Result: 43

Problem: Answer with the recorded IC50 of `CN(C)c1ccc(C=CC=C2SC(=S)NC2=O)cc1` only.
Result: 8

###

// reported pIC50 per item
target: Beta-lactamase TEM (Escherichia coli); assay: Inhibitory activity against class A Beta-lactamase TEM isolated from Escherichia coli
pIC50: −log10 of the molar value.

These solved cases illustrate the format of a correct answer.
{"molSmiles": "O=C1NC(=S)S/C1=C\\c1ccc([N+](=O)[O-])cc1", "targetSystem": "Beta-lactamase TEM (Escherichia coli)", "val": "< 3.15"}
{"molSmiles": "CN(C)c1ccc(C=CC=C2SC(=S)NC2=O)cc1", "targetSystem": "Beta-lactamase TEM (Escherichia coli)", "val": "< 4.00"}
{"molSmiles": "O=C1NC(=S)S/C1=C\\c1cn(-c2ccccc2)cn1", "targetSystem": "Beta-lactamase TEM (Escherichia coli)", "val": "< 3.15"}
{"molSmiles": "O=C1NC(=S)SC1=CC=Cc1ccccc1", "targetSystem": "Beta-lactamase TEM (Escherichia coli)", "val": "< 3.15"}

Problem: Answer with the recorded pIC50 of `O=C1NC(=O)C(=CC=Cc2ccc([N+](=O)[O-])o2)S1` only.
Result: < 4.30

Problem: Answer with the recorded pIC50 of `O=C1NC(=S)S/C1=C\c1ccccc1[N+](=O)[O-]` only.
Result: < 3.15

Problem: Answer with the recorded pIC50 of `O=C1NC(=S)S/C1=C\c1ccccc1C(=O)O` only.
Result: < 3.15

Problem: Answer with the recorded pIC50 of `O=C1NC(=S)S/C1=C\c1ccccc1O` only.
Result: < 3.15

Problem: Answer with the recorded pIC50 of `N#Cc1ccc(/C=C2\SC(=S)NC2=O)cc1` only.
Result: < 3.15

Problem: Answer with the recorded pIC50 of `CCN1C(=O)/C(=C/c2ccccc2)SC1=S` only.
Result: 3.36

Problem: Answer with the recorded pIC50 of `O=C1NC(=S)S/C1=C\c1cn(-c2ccccc2)nn1` only.
Result: < 3.15

Problem: Answer with the recorded pIC50 of `O=C1NC(=S)SC1=CC=Cc1ccc([N+](=O)[O-])cc1` only.
Result: 4.00

Problem: Answer with the recorded pIC50 of `O=C1NC(=S)S/C1=C1/C(=O)Nc2ccccc21` only.
Result: 5.06

Problem: Answer with the recorded pIC50 of `O=C1/C(=C/c2ccccc2)SC(=S)N1CNc1nncs1` only.
Result: 3.86

Problem: Answer with the recorded pIC50 of `O=C(O)CN1C(=O)/C(=C/c2ccccc2)SC1=S` only.
Result: < 3.15

Problem: Answer with the recorded pIC50 of `O=C1/C(=C/c2ccccc2)SC(=S)N1CNc1nn[nH]n1` only.
Result: < 3.15
